pIC50: −log10 of the molar value.
Reported pIC50 against UniProtKB P12931, gathered from multiple publications, appears below.

Looking up N#Cc1ccc(C(=O)Nc2cccc(Nc3nccc(-c4cccnc4)n3)c2)cc1 , I found its pIC50 recorded as < 4.00

Looking up CC(C)[C@@H]1NC(=O)[C@H](Cc2ccc(OP(=O)(O)O)cc2)NC(=O)CNC(=O)[C@@H]2CCCN2C(=O)[C@H](C(C)C)NC(=O)[C@H](CC(N)=O)NC1=O , I found its pIC50 recorded as < 4.00

Looking up Cc1ccc(NC(=O)c2ccc3ccccc3c2)cc1Nc1nccc(-c2cccnc2)n1 , I found its pIC50 recorded as < 4.00

Looking up O=C1NC(=O)c2cc(NC3CCCCC3)c(NC3CCCCC3)cc21 , I found its pIC50 recorded as < 4.30

Looking up CC(=O)N[C@H]1CCCCNC(=O)[C@H]2CCCN2C(=O)[C@H](CC2CCCCC2)NC(=O)[C@@H](CC(N)=O)NC(=O)[C@H](C(C)C)NC(=O)[C@@H](Cc2ccc(OP(=O)(O)O)cc2)NC1=O , I found its pIC50 recorded as < 3.82

Looking up O=C(c1ccc(-c2noc(-c3ccc(C(F)(F)F)cc3)n2)cc1)N1CCN(Cc2ccc(OCC(F)(F)F)cc2)CC1 , I found its pIC50 recorded as < 5.00
